assay: Solubility test in C12-C15 alkyl benzoate oil (Finsolv TN); format: physicochemical; parameters: key: +=well-soluble; −=not soluble; settings: 50% m/m; dissolved at 80° C. for 1 hour, cooled to room temperature, inspected after 24 hours
assay-endpoint: Solubility in Finsolv TN, dissolved amount (m/m %) 50%

Below, each entry is followed by its recorded Solubility in Finsolv TN, dissolved amount (m/m %) 50% result.
• CCCCCCCCOC(=O)C(=CC=CN(CCCC)CCN(C=CC=C(C(=O)OCCCCCCCC)S(=O)(=O)c1ccccc1)CCN(C=CC=C(C(=O)OCCCCCCCC)S(=O)(=O)c1ccccc1)CCCC)S(=O)(=O)c1ccccc1 = −
• CCCCC(CC)COC(=O)C(=CC=CN(CCCCCCN(C=CC=C(C(=O)OCC(CC)CCCC)S(=O)(=O)c1ccccc1)Cc1ccccc1)CCCCCCN(C=CC=C(C(=O)OCC(CC)CCCC)S(=O)(=O)c1ccccc1)Cc1ccccc1)S(=O)(=O)c1ccccc1 (centres unmarked) = −
• CCCCCCCCOC(=O)C(=CC=CN(CCCCCCN(C=CC=C(C(=O)OCCCCCCCC)S(=O)(=O)c1ccccc1)Cc1ccccc1)CCCCCCN(C=CC=C(C(=O)OCCCCCCCC)S(=O)(=O)c1ccccc1)Cc1ccccc1)S(=O)(=O)c1ccccc1 = +
• CCCCCCCCCCCCCCCCCCOC(=O)C(=CC=CN(CCCCCCN(C=CC=C(C(=O)OCCCCCCCCCCCCCCCCCC)S(=O)(=O)c1ccccc1)Cc1ccccc1)CCCCCCN(C=CC=C(C(=O)OCCCCCCCCCCCCCCCCCC)S(=O)(=O)c1ccccc1)Cc1ccccc1)S(=O)(=O)c1ccccc1 = +

Then this compound:
Solubility in Finsolv TN, dissolved amount (m/m %) 50% lookup needed for CC(C)OC(=O)C(=CC=CN(CCCCCCN(C=CC=C(C(=O)OC(C)C)S(=O)(=O)c1ccccc1)Cc1ccccc1)CCCCCCN(C=CC=C(C(=O)OC(C)C)S(=O)(=O)c1ccccc1)Cc1ccccc1)S(=O)(=O)c1ccccc1 , thanks. −

---

test: Heat stability test (UV-absorption left after storage at 50° C.); assay type: physicochemical; settings: 100 days at 50° C. in the dark; 1.5% in C12-C15 alkyl benzoate oil (compound 12: 5% in water); 375 nm versus sample stored at room temperature
assay-endpoint: Heat stability: UV-absorption left after 100 days

* CC(C)OC(=O)C(=CC=CN(CCCCCCN(C=CC=C(C(=O)OC(C)C)S(=O)(=O)c1ccccc1)Cc1ccccc1)CCCCCCN(C=CC=C(C(=O)OC(C)C)S(=O)(=O)c1ccccc1)Cc1ccccc1)S(=O)(=O)c1ccccc1 | ++ (++ means >95% left)
* CCCCCCCCOC(=O)C(=CC=CN(CCCC)CCN(C=CC=C(C(=O)OCCCCCCCC)S(=O)(=O)c1ccccc1)CCN(C=CC=C(C(=O)OCCCCCCCC)S(=O)(=O)c1ccccc1)CCCC)S(=O)(=O)c1ccccc1 | ++ (++ means >95% left)
* CCCCC(CC)COC(=O)C(=CC=CN(CCCCCCN(C=CC=C(C(=O)OCC(CC)CCCC)S(=O)(=O)c1ccccc1)Cc1ccccc1)CCCCCCN(C=CC=C(C(=O)OCC(CC)CCCC)S(=O)(=O)c1ccccc1)Cc1ccccc1)S(=O)(=O)c1ccccc1 (stereo not shown) | ++ (++ means >95% left)

---

experiment: Solubility test in C12-C15 alkyl benzoate oil (Finsolv TN); format: physicochemical; parameters: key: +=well-soluble; −=not soluble; conditions: 1% m/m; dissolved at 80° C. for 1 hour, cooled to room temperature, inspected after 24 hours
assay-endpoint: Solubility in Finsolv TN, dissolved amount (m/m %) 1%

Examples with their reported Solubility in Finsolv TN, dissolved amount (m/m %) 1% follow.
• CCCCCCCCCCCCCCCCCCOC(=O)C(=CC=CN(CCCCCCN(C=CC=C(C(=O)OCCCCCCCCCCCCCCCCCC)S(=O)(=O)c1ccccc1)Cc1ccccc1)CCCCCCN(C=CC=C(C(=O)OCCCCCCCCCCCCCCCCCC)S(=O)(=O)c1ccccc1)Cc1ccccc1)S(=O)(=O)c1ccccc1 [Compound 19] = +
• CC(C)OC(=O)C(=CC=CN(CCCCCCN(C=CC=C(C(=O)OC(C)C)S(=O)(=O)c1ccccc1)Cc1ccccc1)CCCCCCN(C=CC=C(C(=O)OC(C)C)S(=O)(=O)c1ccccc1)Cc1ccccc1)S(=O)(=O)c1ccccc1 [Compound 17] = −
• CCCCCCCCOC(=O)C(=CC=CN(CCCCCCN(C=CC=C(C(=O)OCCCCCCCC)S(=O)(=O)c1ccccc1)Cc1ccccc1)CCCCCCN(C=CC=C(C(=O)OCCCCCCCC)S(=O)(=O)c1ccccc1)Cc1ccccc1)S(=O)(=O)c1ccccc1 [Compound 4] = +
• CCCCC(CC)COC(=O)C(=CC=CN(CCCCCCN(C=CC=C(C(=O)OCC(CC)CCCC)S(=O)(=O)c1ccccc1)Cc1ccccc1)CCCCCCN(C=CC=C(C(=O)OCC(CC)CCCC)S(=O)(=O)c1ccccc1)Cc1ccccc1)S(=O)(=O)c1ccccc1 (centres unmarked) [Compound 18] = +

Now consider the entry below.
Fill in the blank: the reported Solubility in Finsolv TN, dissolved amount (m/m %) 1% of CCCCCCCCOC(=O)C(=CC=CN(CCCC)CCN(C=CC=C(C(=O)OCCCCCCCC)S(=O)(=O)c1ccccc1)CCN(C=CC=C(C(=O)OCCCCCCCC)S(=O)(=O)c1ccccc1)CCCC)S(=O)(=O)c1ccccc1 [Compound 13] is ____. +
